- subject_of_test: T1, cynomolgus CD8 (captured on the Octet biosensor) (cynomolgus)
- T1 construct: Construct not described; also called cyno CD8; cyno CD8a
- assay_comment: Octet (BLI); cynomolgus CD8 captured, dipped into multiple concentrations of the one-arm mAb
endpoint_name: koff (s⁻¹)
Response body: numeric value in s⁻¹, unit text excluded.

Give the measured koff for XENP26237 (antibody, V domains shown, also called OKT8_H2.160_L1.103 one-arm mAb) VH: QVQLVQSGAEVKKPGASVKVSCKASGFNIKDTYIHWVRQAPGKGLEWMGRIDPDNDETLYASKFQGRVTMTADTSINTAYMELSRLRSDDTAVYYCGRGYGYYVFDHWGQGTTVTVSS VL: AIKMTQSPSSLSASVGDRVTITCRTSRSISKYLAWYQEKPGKTNKLLIYSGSTLQSGIPSRFSGSGSGTDFTLTISSLQPEDFATYYCQQHNENPLTFGAGTKLEIK
0.00767
